IC50 values by entry
Test system: MDA-MB-231
Experiment: Cytotoxicity against human MDA-MB-231 cells assessed as reduction in cell viability incubated for 24 hrs under dark condition by resazurin reduction assay
Type: functional, cell-based
Details: MDA-MB-231, 24 h

COMPOUND: Oc1cccc(-c2c3nc(c(-c4cccc(O)c4)c4ccc([nH]4)c(-c4cccc(O)c4)c4nc(c(-c5cccc(O)c5)c5ccc2[nH]5)C=C4)C=C3)c1
EXPERIMENTAL TARGET: MDA-MB-231
COMPARISON OPERATOR: =
IC50 (µM): 3.31

COMPOUND: [N-]=[N+]=NCc1cc2n(n1)CC1c3nc(c(-c4cccc(O)c4)c4ccc([nH]4)c(-c4cccc(O)c4)c4nc(c(-c5cccc(O)c5)c5ccc([nH]5)c3-c3cccc(O)c3)C=C4)C1C2 (stereo unspecified)
EXPERIMENTAL TARGET: MDA-MB-231
COMPARISON OPERATOR: =
IC50 (µM): 15.8

COMPOUND: COC(=O)c1cc2n(n1)CC1c3nc(c(-c4cccc(O)c4)c4ccc([nH]4)c(-c4cccc(O)c4)c4nc(c(-c5cccc(O)c5)c5ccc([nH]5)c3-c3cccc(O)c3)C=C4)C1C2 (stereo unspecified)
EXPERIMENTAL TARGET: MDA-MB-231
COMPARISON OPERATOR: =
IC50 (µM): 7.74

COMPOUND: OCc1cc2n(n1)CC1c3nc(c(-c4cccc(O)c4)c4ccc([nH]4)c(-c4cccc(O)c4)c4nc(c(-c5cccc(O)c5)c5ccc([nH]5)c3-c3cccc(O)c3)C=C4)C1C2 (stereo unspecified)
EXPERIMENTAL TARGET: MDA-MB-231
COMPARISON OPERATOR: =
IC50 (µM): 7.74

COMPOUND: COC(=O)c1cc2n(n1)CC1c3nc(c(-c4cccc(OC(C)=O)c4)c4ccc([nH]4)c(-c4cccc(OC(C)=O)c4)c4nc(c(-c5cccc(OC(C)=O)c5)c5ccc([nH]5)c3-c3cccc(OC(C)=O)c3)C=C4)C1C2 (stereo unspecified)
EXPERIMENTAL TARGET: MDA-MB-231
COMPARISON OPERATOR: >
IC50 (µM): 10

COMPOUND: OCc1nn2c(c1CO)CC1c3nc(c(-c4cccc(O)c4)c4ccc([nH]4)c(-c4cccc(O)c4)c4nc(c(-c5cccc(O)c5)c5ccc([nH]5)c3-c3cccc(O)c3)C=C4)C1C2 (stereo unspecified)
EXPERIMENTAL TARGET: MDA-MB-231
COMPARISON OPERATOR: =
IC50 (µM): 11.4
